TARGET OR TEST SYSTEM: T1, CbrB (Pseudomonas putida, UniProt A0ABM7EKZ2 1-480)
T1 sequence: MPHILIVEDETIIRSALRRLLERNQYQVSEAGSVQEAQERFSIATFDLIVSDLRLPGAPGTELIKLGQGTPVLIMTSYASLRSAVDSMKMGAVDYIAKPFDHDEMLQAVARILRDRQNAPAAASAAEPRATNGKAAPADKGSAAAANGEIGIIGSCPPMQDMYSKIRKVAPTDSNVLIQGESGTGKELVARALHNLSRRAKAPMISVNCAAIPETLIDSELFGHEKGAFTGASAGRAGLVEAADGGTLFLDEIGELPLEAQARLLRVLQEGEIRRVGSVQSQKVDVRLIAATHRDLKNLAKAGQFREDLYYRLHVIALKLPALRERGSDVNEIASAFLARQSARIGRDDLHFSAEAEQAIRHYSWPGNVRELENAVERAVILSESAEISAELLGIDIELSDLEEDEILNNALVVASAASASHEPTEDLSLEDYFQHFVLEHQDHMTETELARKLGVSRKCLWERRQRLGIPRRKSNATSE
TEST PROTOCOL: EMSA; EMSA at room temperature; crcZ/crcY (5 nM): 35 mM Tris-acetate pH 7.9, 70 mM KAc, 20 mM NH4Ac, 2 mM MgAc2, 1 mM CaCl2, 1 mM DTT, 5% glycerol; others (1.5 nM) and footprint: 50 mM Tris-HCl pH 7.4, 50 mM KCl, 10 mM MgCl2, 0.1 mM EDTA, 1 mM DTT; plus 100 ng/ul salmon sperm DNA, 250 ng/ul BSA
REPORTED CONDITIONS: protein: recombinant; tags: N-terminal His tag (pET-14b derived pMPO1229); label: 32P-dATP Klenow fill-in; 5' overhang 2 nt at both ends before fill-in
MEASURED ATTRIBUTE: binding result

PcrcY F1 mutant (dsDNA) DNA 1: TTGTGTGGGTGAAGGACTCTCTCCCGCACATTTCACAGCAAAAAATCGGGTAACAGGGAAACAAATCGGCAGAA DNA 2: TTTTCTGCCGATTTGTTTCCCTGTTACCCGATTTTTTGCTGTGAAATGTGCGGGAGAGAGTCCTTCACCCACAC : no binding
PcrcY wt 72 bp (dsDNA) DNA 1: TTGTGTGGGTGAAGTGTTACCTCCCGCACATTTCACAGCAAAAAATCGGGTAACAGGGAAACAAATCGGCAGAA DNA 2: TTTTCTGCCGATTTGTTTCCCTGTTACCCGATTTTTTGCTGTGAAATGTGCGGGAGGTAACACTTCACCCACAC : binds
PcrcZ F1 mutant (dsDNA) DNA 1: TTCCCGTAAAAATCGACTCTCCAAGCTTTCCGCCGTAACAGTCCCCGAGGCGTACGGTAACGAAATTGCGACAT DNA 2: TTATGTCGCAATTTCGTTACCGTACGCCTCGGGGACTGTTACGGCGGAAAGCTTGGAGAGTCGATTTTTACGGG : no binding
PcrcZ wt 72 bp (dsDNA) DNA 1: TTCCCGTAAAAATCTGTTACCCAAGCTTTCCGCCGTAACAGTCCCCGAGGCGTACGGTAACGAAATTGCGACAT DNA 2: TTATGTCGCAATTTCGTTACCGTACGCCTCGGGGACTGTTACGGCGGAAAGCTTGGGTAACAGATTTTTACGGG : binds

Note: attention shifts to another entry.
Request: Any idea what its binding result is? The binder is PcrcZ R2 mutant (dsDNA) DNA 1: TTCCCGTAAAAATCTGTTACCCAAGCTTTCCGCCGTAACAGTCCCCGAGGCGTACGTACCGTAAATTGCGACAT DNA 2: TTATGTCGCAATTTACGGTACGTACGCCTCGGGGACTGTTACGGCGGAAAGCTTGGGTAACAGATTTTTACGGG
Result: no binding
